# ASSAY INFO: LAP4-GFP expression modulators in yeast, confirmation, cell-based, cherry picks, flow cytometry, mother/daughter gates (AID 2271);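 also: ratio of sample to DMSO plate mean so 100% equals DMSO level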
# SETTINGS: S. cerevisiae LAP4-GFP strain, 3 h, measured here: daughter cell gate response, at 10 µM, stronger effect = higher value, 100 means same as DMSO control
OUTCOME MEASURE: GFP response relative to DMSO (%)
Just the number in %, nothing appended.

Sample CS(=O)(=O)Nc1ccc(C2=NN(S(C)(=O)=O)C(c3ccc4c(c3)OCO4)C2)cc1 (centres undefined) — what was its GFP response relative to DMSO?
102

Queued: COc1cc(-c2nc3ccccn3c2NCC2CCCO2)ccc1O (centres undefined)
95

Subsequent entry: `CCCc1cc(N2CCN(c3ccccn3)CC2)n2nc(C)c(-c3ccccc3)c2n1`
147

Next record, please: `O=[N+]([O-])c1cc(C(F)(F)F)ccc1Sc1ccc2ccccc2n1`
109
